- TARGET OF ASSAY: Nuclear receptor coactivator 3 (Homo sapiens) (UniProt Q9Y6Q9)
- Sequence (Q9Y6Q9 whole entry, looked up): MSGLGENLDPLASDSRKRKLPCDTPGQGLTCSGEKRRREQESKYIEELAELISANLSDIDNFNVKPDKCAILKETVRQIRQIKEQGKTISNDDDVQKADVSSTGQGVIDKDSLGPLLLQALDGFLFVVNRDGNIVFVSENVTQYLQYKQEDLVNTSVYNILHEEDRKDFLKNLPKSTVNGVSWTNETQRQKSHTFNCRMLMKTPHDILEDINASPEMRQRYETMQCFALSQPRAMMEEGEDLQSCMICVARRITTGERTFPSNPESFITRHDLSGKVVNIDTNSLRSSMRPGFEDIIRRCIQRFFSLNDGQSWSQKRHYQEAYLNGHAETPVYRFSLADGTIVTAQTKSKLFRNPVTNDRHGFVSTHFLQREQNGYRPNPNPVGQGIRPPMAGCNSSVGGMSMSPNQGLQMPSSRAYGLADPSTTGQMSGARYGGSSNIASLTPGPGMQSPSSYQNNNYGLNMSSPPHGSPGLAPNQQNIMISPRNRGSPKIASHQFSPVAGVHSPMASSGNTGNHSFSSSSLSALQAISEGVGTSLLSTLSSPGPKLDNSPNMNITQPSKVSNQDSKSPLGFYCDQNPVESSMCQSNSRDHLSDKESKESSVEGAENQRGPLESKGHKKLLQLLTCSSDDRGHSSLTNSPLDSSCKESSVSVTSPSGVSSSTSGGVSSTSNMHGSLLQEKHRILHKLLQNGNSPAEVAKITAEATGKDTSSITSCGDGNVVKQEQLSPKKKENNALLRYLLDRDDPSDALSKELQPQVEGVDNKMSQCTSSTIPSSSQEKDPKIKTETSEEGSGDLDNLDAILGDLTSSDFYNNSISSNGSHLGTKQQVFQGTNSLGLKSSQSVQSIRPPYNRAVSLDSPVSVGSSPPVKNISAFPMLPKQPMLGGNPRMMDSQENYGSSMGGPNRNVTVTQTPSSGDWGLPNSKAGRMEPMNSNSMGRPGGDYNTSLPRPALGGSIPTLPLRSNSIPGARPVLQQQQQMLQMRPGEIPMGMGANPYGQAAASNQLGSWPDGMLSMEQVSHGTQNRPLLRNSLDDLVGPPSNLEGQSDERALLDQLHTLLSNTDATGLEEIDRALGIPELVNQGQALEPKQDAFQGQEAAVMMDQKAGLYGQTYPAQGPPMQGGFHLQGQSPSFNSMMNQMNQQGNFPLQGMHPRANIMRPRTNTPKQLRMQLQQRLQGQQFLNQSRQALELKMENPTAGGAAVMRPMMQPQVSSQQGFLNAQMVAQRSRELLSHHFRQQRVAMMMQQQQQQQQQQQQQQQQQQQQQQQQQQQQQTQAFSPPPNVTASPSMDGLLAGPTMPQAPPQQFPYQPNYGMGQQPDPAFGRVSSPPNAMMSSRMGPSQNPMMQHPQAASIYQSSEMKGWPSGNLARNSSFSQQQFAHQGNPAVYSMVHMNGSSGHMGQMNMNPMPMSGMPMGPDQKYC
- MEASUREMENT DESCRIPTION: SRC3 coactivator transcriptional activity inhibitors, confirmation, cell-based, luminescence, quadruplicate (AID 588792);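 note: 0% = DMSO treated cells and 100% = gossypol at 36 µM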
- MEASUREMENT SETUP: HEK293 GAL4-SRC3 luciferase reporter, at 3.6 µM, stronger effect = higher value
// inhibition lookup, one value per entry
EXPERIMENTAL ENDPOINT: inhibition (%)

COMPOUND	EXPERIMENTAL ENDPOINT	UNIT SPEC	RESULT NUMBER
COCCNC(=O)c1cc(-c2ccccn2)nc2ccc(S(=O)(=O)N3CCC(C)CC3)cc12	inhibition	%	30.4
COc1ccc(C(=O)Nc2nnc(Cc3cccs3)s2)cc1OC	inhibition	%	19
COC(=O)c1sc(NC(=O)c2cc(-c3ccccc3)nc3ccccc23)c(C#N)c1C	inhibition	%	5.32
Cc1ccc(C#N)c(SCc2nnc(-c3ccc(Cl)cc3)o2)n1	inhibition	%	67.8
Cc1ccc(C(=O)N/N=C/c2ccc([N+](=O)[O-])s2)cc1	inhibition	%	54.5
COc1ccc(N=C(NN)c2ccc3ccccc3n2)cc1	inhibition	%	-51.2
CC(=NNC(=S)N1CCCC1)c1ccccn1	inhibition	%	54.1
O=C(Nc1cc(C(=O)N2CCCC2)ccc1N1CCCC1)c1ccccc1F	inhibition	%	27.3
CCCOc1ccc(Br)cc1CSC(=N)N	inhibition	%	17.9
COc1ccc2cc3c(N)nn(C(=O)c4ccccc4[N+](=O)[O-])c3nc2c1	inhibition	%	76.5
Cc1cc(C2=NNC(=NC3CC3)SC2)c(C)n1-c1ccccc1F	inhibition	%	84.8
S=c1[nH]nc(C2CCCCC2)n1/N=C/c1ccco1	inhibition	%	-2.38
COc1cc(/C=N/NC(N)=S)cc(Br)c1OCc1ccccc1F	inhibition	%	54.7
CCN1C/C(=C\c2cccc([N+](=O)[O-])c2)C(=O)/C(=C/c2cccc([N+](=O)[O-])c2)C1	inhibition	%	-110
c1cc(CNc2ccc3c(c2)OCCO3)ccn1	inhibition	%	-1.65
CC(=O)c1ccc(N2CCN(C(=O)c3nn(Cc4ccccc4)c(=O)c4ccccc34)CC2)cc1	inhibition	%	13.9
O=c1[nH]oc2cc(Cl)ccc12	inhibition	%	3.14
Cc1cccc(-n2ncc3c(N(C)C4CCCCC4)ncnc32)c1	inhibition	%	72.9
CCCN(CC)c1ncnc2[nH]ncc12	inhibition	%	72.3
COc1cccc(N2CCN(c3ncnc4c3cnn4-c3ccc(C)cc3C)CC2)c1	inhibition	%	88.3
C[n+]1c2n(c3ccccc31)N=C(c1ccccc1)CS2	inhibition	%	4.94
CC(C)(CNC(=O)c1ccc(Cl)c(S(=O)(=O)N2CCc3ccccc3C2)c1)N1CCOCC1	inhibition	%	7.77
Cc1ccc(-n2c(-c3ccccc3)c[n+]3c2CCc2ccccc2-3)c(C)c1	inhibition	%	61.7
O=C(Nc1ccc(Cn2cccn2)cc1)c1ccc(COc2cccc(Br)c2)cc1	inhibition	%	1.93
O=C(CN1C(=O)c2ccccc2S1(=O)=O)N1CCc2ccccc21	inhibition	%	60.5
C=CCOc1ccccc1CNc1ccc2c(c1)OCCO2	inhibition	%	25.2
Cc1ccsc1/C=N/NC(=O)CNC(=O)c1ccccc1	inhibition	%	-11.5
CCN(CC)S(=O)(=O)c1ccc(N/N=C/c2cc(OC)ccc2O)nc1	inhibition	%	31.4
CCOC(=O)c1c(NC(=S)N2CCN(C)CC2)sc2c1CCN(C(=O)OCC)C2	inhibition	%	35.5
Cc1cc(Br)ccc1NC(=O)c1cnc(N2CCN(c3ccccn3)CC2)c2ccccc12	inhibition	%	15.6
Cc1ccc(NC(=O)C(=Cc2ccc(C(=O)O)cc2)C(=O)Nc2ccc(C)cc2C)c(C)c1	inhibition	%	32.6
CCCn1c(C)cc(C(=O)CN2C(=O)c3ccccc3S2(=O)=O)c1C	inhibition	%	70.8
CC(C)c1ccc(-c2csc(NC(=O)c3cccs3)c2C(=O)O)cc1	inhibition	%	8.33
O=C(Nc1nc(-c2ccc3ccccc3c2)cs1)C1CCN(S(=O)(=O)c2cccs2)CC1	inhibition	%	8.55
CCCCCCCN1C2=NCCCN2c2ccccc21	inhibition	%	-5.13
O=C(NCc1cccs1)C1CCCN(C(=O)Nc2ccc(F)cc2)C1 (centres undefined)	inhibition	%	-1.07
CC(C)(C)c1ccc(C(=O)O/N=C(\N)c2ccccn2)cc1	inhibition	%	85.4
Cn1c(=O)c2c(nc(NCc3ccco3)n2C/C=C/c2ccccc2)n(C)c1=O	inhibition	%	36.4
COc1c(Cl)cc(Cl)cc1/C=C/C(=O)c1ccc(NC(=O)c2cccs2)cc1	inhibition	%	48.7
CC(C)(C)c1ccc(-c2noc(CCC(=O)Nc3cccnc3)n2)cc1	inhibition	%	41
Cc1c(P(=S)(c2ccccc2)c2ccccc2)[n+]2ccccc2n1C/C=C/c1ccccc1	inhibition	%	20.6
CCN(C(C)=O)c1cnc(C=NNC(N)=S)c2ccccc12	inhibition	%	39.5
CCOc1ccc(-n2c(C)c(C(C)=O)c3cc(OC(C)=O)ccc32)cc1	inhibition	%	67.3
Cc1ccc(/C=C/C(O)=C2/C(=O)N(C)C3(C)CC2c2ccccc2O3)cc1 (centres undefined)	inhibition	%	20.3
